Origin of values: paper PMC8519022

- TESTED_TARGET: Bos taurus trypsin 1 (T1) (Bos taurus)
- Sequence (P00760 24-246): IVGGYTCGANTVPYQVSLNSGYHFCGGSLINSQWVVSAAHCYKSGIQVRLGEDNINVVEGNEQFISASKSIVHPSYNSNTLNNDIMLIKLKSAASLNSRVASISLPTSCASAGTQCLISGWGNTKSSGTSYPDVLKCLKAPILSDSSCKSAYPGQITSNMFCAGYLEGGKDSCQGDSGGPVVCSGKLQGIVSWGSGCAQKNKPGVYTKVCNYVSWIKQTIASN
- ASSAY_INFO: Trypsin inhibition, Ki by Lineweaver-Burk analysis;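 also: trypsin activity followed by spectrophotometric hydrolysis kinetics of the chromogenic substrate BAPNA in Tris buffer, Ki obtained from double-reciprocal Lineweaver–Burk plots at several substrate concentrations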
- MEASUREMENT_CONTEXT: K i [nM] (open)
*1 amine or outer side, *2 acyl side, *3 side chain or, on linkers, in order; H or OH if unused. Where a SMILES comes first, the peptide text is derived from it. Bridges are numbered along the chain shown (N, C = ends). [ ]: non-standard residue; d: D form. X1 = Cc1sc(C(=O)[C@@H]2CCCN2[*:2])cc1C1=C(c2cc(C(=O)[*:1])sc2C)CCC1; hCys = N[C@@H](CCS)C(=O)O
READOUT_TYPE: Ki (nM)
Give the quantity in nM, number only.

Data request: Please look up its Ki: CC[C@H](C)[C@@H]1NC(=O)[C@@H]2CCCN2C(=O)[C@@H]2CCCN2C(=O)[C@H]([C@@H](C)CC)NC(=O)[C@H](CO)NC(=O)[C@H](CCCCN)NC(=O)[C@H]([C@@H](C)O)NC(=O)[C@H](C)NC(=O)[C@H](CCCNC(=N)N)NC(=O)c2cc(c(C)s2)C2=C(CCC2)c2cc(sc2C)C(=O)[C@@H]2CCCN2C(=O)[C@H](Cc2ccccc2)NC(=O)[C@H](C)NC1=O [Peptide S2] (RATKSIPPIAF; linker N-C via X1)
Data returned: 203

Data request: Item CC[C@H](C)[C@@H]1NC(=O)[C@@H]2CCCN2C(=O)[C@@H]2CCCN2C(=O)[C@H]([C@@H](C)CC)NC(=O)[C@H](CO)NC(=O)[C@H](CCCCN)NC(=O)[C@H]([C@@H](C)O)NC(=O)[C@@H]2CSSC[C@H](NC1=O)C(=O)N[C@@H](Cc1ccccc1)C(=O)N1CCC[C@H]1C(=O)c1cc(c(C)s1)C1=C(CCC1)c1cc(sc1C)C(=O)N[C@@H](CCCNC(=N)N)C(=O)N2 [Peptide S1n] (RCTKSIPPICF; disulfide 2-10; linker N-C via X1) has what recorded Ki?
Data returned: 4.9

Data request: What Ki value was documented for this compound, CC[C@H](C)[C@@H]1NC(=O)[C@@H]2CCCN2C(=O)[C@@H]2CCCN2C(=O)[C@H]([C@@H](C)CC)NC(=O)[C@H](CO)NC(=O)[C@H](CCCCN)NC(=O)[C@H]([C@@H](C)O)NC(=O)[C@@H]2CSSC[C@H](NC1=O)C(=O)N[C@@H](CCCNC(=N)N)C(=O)N1CCC[C@H]1C(=O)c1cc(c(C)s1)C1=C(CCC1)c1cc(sc1C)C(=O)N[C@@H](Cc1ccccc1)C(=O)N2 [Peptide S1i] (FCTKSIPPICR; disulfide 2-10; linker N-C via X1) ?
Data returned: 13.4

Data request: Return reported Ki; argument: CC[C@H](C)[C@@H]1NC(=O)[C@@H]2CCCN2C(=O)[C@@H]2CCCN2C(=O)[C@H]([C@@H](C)CC)NC(=O)[C@H](CO)NC(=O)[C@H](CCCCN)NC(=O)[C@H]([C@@H](C)O)NC(=O)[C@@H]2CSSCC[C@H](NC1=O)C(=O)N[C@@H](CCCNC(=N)N)C(=O)N1CCC[C@H]1C(=O)c1cc(c(C)s1)C1=C(CCC1)c1cc(sc1C)C(=O)N[C@@H](Cc1ccccc1)C(=O)N2 [Peptide S5i] (FCTKSIPPI[hCys]R; disulfide 2-10; linker N-C via X1)
Data returned: 102

Data request: Consider the compound CC[C@H](C)[C@@H]1NC(=O)[C@@H]2CCCN2C(=O)[C@@H]2CCCN2C(=O)[C@H]([C@@H](C)CC)NC(=O)[C@H](CO)NC(=O)[C@H](CCCCN)NC(=O)[C@H]([C@@H](C)O)NC(=O)[C@@H]2CSSC[C@H](NC1=O)C(=O)N[C@@H](CCCNC(=N)N)C(=O)N[C@@H](CC(C)C)C(=O)N1CCC[C@H]1C(=O)c1cc(c(C)s1)C1=C(CCC1)c1cc(sc1C)C(=O)N[C@@H](C(C)C)C(=O)N[C@@H](Cc1ccccc1)C(=O)N2 [Peptide S10i] (VFCTKSIPPICRL; disulfide 3-11; linker N-C via X1) and give its measured Ki.
Data returned: 5.1
